# inhibition at 200 µM per entry
- Assayed target: hIDO1 (Homo sapiens)
- Construct: The full ORF of hIDO1 was cloned into the mammalian expression vector pcDNA6/myc-His; myc-His (vector-encoded); host or cells: HEK 293 T
- Sequence (P14902 whole entry): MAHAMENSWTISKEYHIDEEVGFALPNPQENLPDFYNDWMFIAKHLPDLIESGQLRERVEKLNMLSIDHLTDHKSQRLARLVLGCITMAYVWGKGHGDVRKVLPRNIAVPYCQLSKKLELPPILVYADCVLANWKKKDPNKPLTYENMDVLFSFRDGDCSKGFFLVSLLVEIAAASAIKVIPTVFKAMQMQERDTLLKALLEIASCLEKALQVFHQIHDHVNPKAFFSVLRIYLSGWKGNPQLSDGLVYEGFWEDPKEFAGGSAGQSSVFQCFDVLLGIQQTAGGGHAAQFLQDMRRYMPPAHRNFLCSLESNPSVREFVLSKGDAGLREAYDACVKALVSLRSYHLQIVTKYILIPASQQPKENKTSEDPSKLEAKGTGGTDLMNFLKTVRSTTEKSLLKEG
- Procedure summary: Cellular hIDO1 inhibition (kynurenine production) in transiently transfected HEK 293 T cells
- Type: cell-based
Readout kind: inhibition at 200 µM (%)

In [3]: df
Out[3]:
               structure_notation        assayed_target  u  measured
0     Nc1cc(F)c(Br)cc1-c1nc[nH]n1  hIDO1 (Homo sapiens)  %       100
1     COc1ccc(C(=O)c2cnn[nH]2)cc1  hIDO1 (Homo sapiens)  %        22
2          O=C(c1csnn1)c1cnn[nH]1  hIDO1 (Homo sapiens)  %       4.8
3  CC(=O)Nc1ccc(Cl)cc1-c1nc[nH]n1  hIDO1 (Homo sapiens)  %        89

----------
- Assayed target: purified recombinant IDO1 (Homo sapiens, UniProt P14902)
- Construct: Full-length human IDO1 gene was cloned into the pET-28a vector; inferred from pET-28a vector and HisTrap purification; made in house; host or cells: E. coli Rosetta (DE3)
- Sequence (P14902 whole entry): as above
- Procedure summary: Enzymatic IDO1 inhibition assay (ascorbate/methylene blue reduction system, HPLC detection of kynurenine)
- Format: biochemical
- Experimental conditions: ligand efficiency, LE = -RT log(IC50)/number of heavy atoms, from enzymatic IC50
Binary call on LE [kcal/mol/HA]: 1 from 0.5 kcal/mol/HA upward, 0 beneath that.

>>> print(df.to_string())
                                    molecule                            assayed_target  qualitative_label
 0  Brc1cccc(-c2nc[nH]n2)c1 [Compound 135, 3–(3-Bromophenyl)-1H-1,2,4-triazole]  purified recombinant IDO1 (Homo sapiens, UniProt P14902)                  1
 1  Clc1cccc(-c2c[nH]nn2)c1OCCc1ccccc1 [Compound 43]  purified recombinant IDO1 (Homo sapiens, UniProt P14902)                  0
 2       Nc1cccnc1-c1nc[nH]n1 [Compound 160]  purified recombinant IDO1 (Homo sapiens, UniProt P14902)                  1
 3  Cc1c(Cl)ccc(N)c1-c1nc[nH]n1 [Compound 156]  purified recombinant IDO1 (Homo sapiens, UniProt P14902)                  0
 4  Nc1ccccc1-c1nnc[nH]1 [Compound 139, 3–(2-aminophenyl)-1,2,4-triazole]  purified recombinant IDO1 (Homo sapiens, UniProt P14902)                  1
 5    O=C(c1cccnc1)c1cnn[nH]1 [Compound 121]  purified recombinant IDO1 (Homo sapiens, UniProt P14902)                  0
 6   Nc1c(Cl)cccc1-c1nc[nH]n1 [Compound 141]  purified recombinant IDO1 (Homo sapiens, UniProt P14902)                  0
 7  CCC(=O)Nc1ccc(Cl)cc1-c1nc[nH]n1 [Compound 147]  purified recombinant IDO1 (Homo sapiens, UniProt P14902)                  0
 8  O=C(c1cnn[nH]1)c1ccc(Br)cc1O [Compound 113]  purified recombinant IDO1 (Homo sapiens, UniProt P14902)                  0
 9  NC(=O)c1[nH]nnc1-c1ccc(Cl)cc1 [Compound 66, reference compound]  purified recombinant IDO1 (Homo sapiens, UniProt P14902)                  0
10  CCCCc1cccc(-c2c[nH]nn2)c1 [Compound 24, 4–(3-Butylphenyl)-1,2,3-triazole]  purified recombinant IDO1 (Homo sapiens, UniProt P14902)                  0
11  COc1cccc(C(=O)c2cnn[nH]2)c1 [Compound 104]  purified recombinant IDO1 (Homo sapiens, UniProt P14902)                  0
12  O=C(c1cccc(Cl)c1)c1cnn[nH]1 [Compound 101]  purified recombinant IDO1 (Homo sapiens, UniProt P14902)                  0
13     Clc1cccc(-c2cnn[nH]2)c1 [Compound 30]  purified recombinant IDO1 (Homo sapiens, UniProt P14902)                  1
14        Nc1ccsc1-c1nc[nH]n1 [Compound 161]  purified recombinant IDO1 (Homo sapiens, UniProt P14902)                  1

----------
pIC50 reference
- Assayed target: purified recombinant IDO1 (Homo sapiens)
- Construct: Full-length human IDO1 gene was cloned into the pET-28a vector; inferred from pET-28a vector and HisTrap purification; made in house; host or cells: E. coli Rosetta (DE3)
- Procedure summary: Enzymatic IDO1 inhibition assay (ascorbate/methylene blue reduction system, HPLC detection of kynurenine)
- Format: biochemical
- Experimental conditions: enzymatic; L-Trp 100 µM, 0.01% Triton X-100, 5% DMSO, 20 min at room temperature, pH 6.5; duplicates; read-out: IC50 [ μ M] (SD)
pIC50: −log10 of the molar value.
Readout kind: pIC50

>>> print(df.to_string())
               structure_notation  measured
0        c1ccc2c(c1)ccc1nn[nH]c12    < 4.00
1        Cc1[nH]nnc1-c1cccc(Cl)c1    < 3.00
2       O=C(c1cnn[nH]1)c1ccccc1Cl    < 3.00
3  O=C(c1ccc(Br)cc1)c1[nH]nnc1CBr    < 3.00
4         O=C(c1ccccn1)c1cnn[nH]1    < 3.00
5  c1ccc(Nc2[nH]nnc2-c2ccccc2)cc1    < 3.60
6           c1cc(-c2nc[nH]n2)ccn1    < 3.00
7          Fc1ccc(-c2nc[nH]n2)cc1    < 3.00
